Data provenance: patent US10988465B2

Form field: IC50 (one value per entry).
Target: CXCR-4 transfected U87 cell line (U87.CXCR4) (Homo sapiens, UniProt P61073)
Sequence (P61073 whole entry): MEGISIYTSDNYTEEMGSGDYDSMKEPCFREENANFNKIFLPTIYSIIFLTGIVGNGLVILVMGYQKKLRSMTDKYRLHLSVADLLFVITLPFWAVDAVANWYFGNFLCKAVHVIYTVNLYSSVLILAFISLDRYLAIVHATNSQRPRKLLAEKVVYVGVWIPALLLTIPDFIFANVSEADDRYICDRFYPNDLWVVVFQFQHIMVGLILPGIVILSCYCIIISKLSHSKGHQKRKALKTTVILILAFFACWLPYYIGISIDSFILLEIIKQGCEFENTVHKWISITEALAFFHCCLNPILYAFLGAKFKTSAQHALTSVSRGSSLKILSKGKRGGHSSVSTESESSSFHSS
Assay: Intracellular CXCL-12-induced calcium mobilization assay (FLIPR)
Settings: U87.CXCR4 cells; CXCL-12 25-50 ng/mL; compound added 15 min before; read-out: IC50 CXCL-12 Ca^2+ flux U87.CXCR4+

Example entries and their recorded answers appear below.
compound="Cc1cccnc1[C@@H]1CCCC(c2nccn2CCCc2ccccn2)N1 (stereo in doubt)" result_value="≥ 1000 nM"
compound=Cc1cccnc1[C@@H]1CCC[C@H](c2nc3cccc(N4C5CCC4CN(C)C5)c3[nH]2)N1 result_value="0.01 to 100 nM"
compound=Cc1cccnc1[C@@H]1CCC[C@H](c2nccn2C2CCN(C3CC3)CC2)N1C result_value="100 to 1000 nM"

Q: Form field: reported IC50 of Cc1cccnc1[C@@H]1CCC[C@H](c2nc3ccccc3n2CC2CCNCC2)N1C
Result: 0.01 to 100 nM

Q: Form field: reported IC50 of Cc1cccnc1[C@@H]1CCC[C@H](c2nc3cccc(N4CCN(C)CC4)c3n2C)N1
Result: 0.01 to 100 nM
